System: VchCAST RNA-guided transposition machinery (E. coli BL21(DE3) host, lacZ target)
Experiment summary: relative integration efficiency (T-LR orientation) vs wild-type transposon end (log2 (normalized fold change)); transposon end mutated: left end; higher = more efficient transposition
Form field: relative integration efficiency (log2) (one value per entry).
Measured quantity: relative integration efficiency (log2)

INSERT INTO measurements (construct_sequence, measured_target, measured_result) VALUES
  ('AATGTTGTTGATGCAACCATAAAGTGATATTTAATAATTATTTATAATCAGCAACTTAACCACAAAATGTGACAACCATATATTGATATCTCACAAAACAACCATAAGTTGATATTTTATCGAGTATTTCAGCAAAACTACTGCAGTAAGAA', 'VchCAST RNA-guided transposition machinery (E. coli BL21(DE3) host, lacZ target)', -4.36),
  ('AATGTTGTTGATGCAACCATAAAGTGATATTTAATAATTATTTATAATCAGCAACTTAACCACAAAACAACCATATATTGATATCTCACAAAACAACCATAATGGTCGCGGGGGTGTCCGATCTGATTTCAGCAAAACTACTGCAGTAAGAA', 'VchCAST RNA-guided transposition machinery (E. coli BL21(DE3) host, lacZ target)', -1.31),
  ('AATGTTGTTGATGCAACCATAAAGTGATATTTAATAATTATTTATAATCAGCAACTTAACCACAAAACAACCATATATTGATATCTCCACCCCACCAACGCCTGGTCGCGGGGGTGTCCGATCTGATTTCAGCAAAACTACTGCAGTAAGAA', 'VchCAST RNA-guided transposition machinery (E. coli BL21(DE3) host, lacZ target)', -0.685);

Data origin, for the record: the supplement of paper PMC10201428
